Where do the numbers come from? From patent US10030027B2.

# measured_on: sGC α1/β1 heterodimer (Homo sapiens (Human), UniProt Q02108+Q02153)
# Sequence (Q02108 whole entry): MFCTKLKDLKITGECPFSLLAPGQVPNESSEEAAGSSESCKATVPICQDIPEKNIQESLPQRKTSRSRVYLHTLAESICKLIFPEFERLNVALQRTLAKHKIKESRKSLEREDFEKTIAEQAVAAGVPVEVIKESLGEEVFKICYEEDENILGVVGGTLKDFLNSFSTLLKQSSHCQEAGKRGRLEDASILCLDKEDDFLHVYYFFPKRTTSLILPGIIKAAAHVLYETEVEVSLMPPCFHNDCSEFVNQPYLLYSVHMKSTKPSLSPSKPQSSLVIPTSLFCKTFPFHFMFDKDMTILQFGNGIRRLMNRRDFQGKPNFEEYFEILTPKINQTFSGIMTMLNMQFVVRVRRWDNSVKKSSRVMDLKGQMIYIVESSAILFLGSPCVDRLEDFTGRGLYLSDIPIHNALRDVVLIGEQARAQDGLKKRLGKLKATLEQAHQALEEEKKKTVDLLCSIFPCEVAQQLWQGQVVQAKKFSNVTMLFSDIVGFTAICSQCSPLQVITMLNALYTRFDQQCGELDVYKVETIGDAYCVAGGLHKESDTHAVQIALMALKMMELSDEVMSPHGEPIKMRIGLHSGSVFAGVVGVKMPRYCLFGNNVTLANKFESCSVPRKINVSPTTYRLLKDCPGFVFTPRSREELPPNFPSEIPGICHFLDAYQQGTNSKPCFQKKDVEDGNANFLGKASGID
# Sequence (Q02153 whole entry): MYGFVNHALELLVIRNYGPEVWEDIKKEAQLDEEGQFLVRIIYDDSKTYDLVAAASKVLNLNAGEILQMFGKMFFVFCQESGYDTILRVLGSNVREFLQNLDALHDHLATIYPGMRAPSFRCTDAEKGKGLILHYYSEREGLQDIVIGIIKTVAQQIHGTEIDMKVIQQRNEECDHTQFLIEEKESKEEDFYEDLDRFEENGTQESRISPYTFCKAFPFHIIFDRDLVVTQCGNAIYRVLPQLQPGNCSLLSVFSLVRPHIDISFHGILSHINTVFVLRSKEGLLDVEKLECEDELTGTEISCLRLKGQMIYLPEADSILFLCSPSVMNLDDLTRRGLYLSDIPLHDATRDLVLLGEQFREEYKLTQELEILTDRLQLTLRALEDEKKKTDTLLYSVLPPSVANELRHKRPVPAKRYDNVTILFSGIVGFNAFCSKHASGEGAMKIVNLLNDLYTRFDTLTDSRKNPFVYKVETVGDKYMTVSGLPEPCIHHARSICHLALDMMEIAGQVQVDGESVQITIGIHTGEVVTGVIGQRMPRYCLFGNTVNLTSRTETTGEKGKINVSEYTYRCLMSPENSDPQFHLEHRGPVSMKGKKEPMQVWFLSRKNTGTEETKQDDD
# assay_info: Cell-based sGC functional assay (cyclic GMP assay for sGC activator: CASA assay)
# condition_parameters: inflection point, 4P fit; CHO-K1/sGC cells; read-out: IP
Recorded EC50, one value per entry.

# molecule, value_unit, EC50
measured = [
    ("CC1(c2nc(CCC(=O)O)c[nH]2)C(=O)Nc2nc(-c3nn(Cc4ccccc4F)c4cc(Cl)ccc34)nc(N)c21 (stereo not drawn) [Example 235B]", "nM", 626),
    ("CC1(c2nc(-c3ccc(C(=O)O)cc3)co2)C(=O)Nc2nc(-c3nn(Cc4ccccc4F)c4cc(Cl)ccc34)nc(N)c21 (stereo not drawn) [Example 164A]", "nM", 439),
    ("CC(C)(Cc1coc(C2(C3CC3)C(=O)Nc3nc(-c4nn(Cc5ccccc5F)c5cc(Cl)ccc45)nc(N)c32)n1)C(=O)O (stereo not drawn) [Example 138B]", "nM", 375),
    ("CC1(c2cccc(CCC(=O)O)c2)C(=O)Nc2nc(-c3nn(Cc4ccccc4F)c4ccccc34)nc(N)c21 (stereo not drawn) [Example 53A]", "nM", 124),
    ("CC1CCC(Cn2nc(-c3nc(N)c4c(n3)NC(=O)[C@@]4(C)c3ccc(CCC(=O)O)cc3)c3ccc(Cl)cc32)CC1 (single isomer, unassigned) [Example 5BA]", "nM", 132),
    ("CC1CCC(Cn2nc(-c3nc(N)c4c(n3)NC(=O)C4(C)c3nc(CC(C)(C)C(=O)O)co3)c3ccc(Cl)cc32)CC1 (single isomer, unassigned) [Example 132AB]", "nM", 89),
]

* * *

# measured_on: sGC α1/β1 heterodimer (Homo sapiens (Human), UniProt Q02108+Q02153)
# assay_info: Cell-based sGC functional assay (cyclic GMP assay for sGC activator: CASA assay)
# condition_parameters: CHO-K1, activity expressed as percentage of compound A (standard); CHO-K1/sGC cells; read-out: % Activation

# molecule, measured_on, Emax / %
measured = [
    ("CC1(c2cccc(C(=O)O)c2)C(=O)Nc2nc(-c3nn(Cc4ccccc4F)c4cc(Cl)ccc34)nc(N)c21 (stereo not shown) [Example 169B]", "sGC α1/β1 heterodimer (Homo sapiens (Human), UniProt Q02108+Q02153)", 90.3),
    ("CC1(c2nc(C[C@@H](N)C(=O)O)co2)C(=O)Nc2nc(-c3nn(Cc4ccccc4F)c4cc(Cl)ccc34)nc(N)c21 (single isomer, unassigned) [Example 172A]", "sGC α1/β1 heterodimer (Homo sapiens (Human), UniProt Q02108+Q02153)", 92.7),
    ("CC(C)(Cc1csc([C@]2(C)C(=O)Nc3nc(-c4nn(Cc5cccc(F)c5)c5ncccc45)nc(N)c32)n1)C(=O)O [Example 149A]", "sGC α1/β1 heterodimer (Homo sapiens (Human), UniProt Q02108+Q02153)", 103),
    ("CC(C)(Cc1coc(C2(C)C(=O)Nc3nc(-c4nn(CC5CCCCC5)c5cc(F)ccc45)nc(N)c32)n1)C(=O)O (stereo not shown) [Example 202A]", "sGC α1/β1 heterodimer (Homo sapiens (Human), UniProt Q02108+Q02153)", 122),
    ("CC1(c2nc(CCC(=O)O)c[nH]2)C(=O)Nc2nc(-c3nn(Cc4ccccc4F)c4cc(Cl)ccc34)nc(N)c21 (stereo not shown) [Example 235B]", "sGC α1/β1 heterodimer (Homo sapiens (Human), UniProt Q02108+Q02153)", 86.8),
    ("Cc1cccc(Cn2nc(-c3nc(N)c4c(n3)NC(=O)[C@@]4(C)c3nc(CC(C)(C)C(=O)O)cs3)c3ccc(Cl)cc32)c1F [Example 188A]", "sGC α1/β1 heterodimer (Homo sapiens (Human), UniProt Q02108+Q02153)", 124),
    ("CCCCCn1nc(-c2nc(N)c3c(n2)NC(=O)[C@@]3(C)c2ccc(CCC(=O)O)cc2)c2ccc(Cl)cc21 [Example 43B]", "sGC α1/β1 heterodimer (Homo sapiens (Human), UniProt Q02108+Q02153)", 105),
    ("Cc1cccc(Cn2nc(-c3nc(N)c4c(n3)NC(=O)C4(C)c3nc(CC(C)(C)C(=O)O)co3)c3ccccc32)c1 (stereo not shown) [Example 226A]", "sGC α1/β1 heterodimer (Homo sapiens (Human), UniProt Q02108+Q02153)", 112),
    ("CC(C)(Cc1csc(C2(C)C(=O)Nc3nc(-c4nn(CCC(F)(F)F)c5ncc(F)cc45)nc(N)c32)n1)C(=O)O (stereo not shown) [Example 85A]", "sGC α1/β1 heterodimer (Homo sapiens (Human), UniProt Q02108+Q02153)", 130),
    ("CC(C)(Cc1coc(C2(C)C(=O)Nc3nc(-c4nn(CC5CCCCO5)c5cc(F)ccc45)nc(N)c32)n1)C(=O)O (single isomer, unassigned) [Example 134AA]", "sGC α1/β1 heterodimer (Homo sapiens (Human), UniProt Q02108+Q02153)", 104),
    ("CC(C)(Cc1coc(C2(C)C(=O)Nc3nc(-c4nn(CC5CCCC5)c5ncccc45)nc(N)c32)n1)C(=O)O (stereo not shown) [Example 154A]", "sGC α1/β1 heterodimer (Homo sapiens (Human), UniProt Q02108+Q02153)", 104),
    ("CC1(c2cc(-c3nn[nH]n3)ccn2)C(=O)Nc2nc(-c3nn(Cc4ccccc4F)c4cc(Cl)ccc34)nc(N)c21 (stereo not shown) [Example 243A]", "sGC α1/β1 heterodimer (Homo sapiens (Human), UniProt Q02108+Q02153)", 101),
    ("CC1(c2nc(-c3ccc(C(=O)O)cc3)cs2)C(=O)Nc2nc(-c3nn(CCC(F)(F)C(F)(F)F)c4cc(Cl)ccc34)nc(N)c21 (stereo not shown) [Example 156A]", "sGC α1/β1 heterodimer (Homo sapiens (Human), UniProt Q02108+Q02153)", 93.5),
]
